Taken from ChEMBL document CHEMBL4007384.

target: Epidermal growth factor receptor (Homo sapiens, UniProt P00533)
Sequence (P00533 whole entry): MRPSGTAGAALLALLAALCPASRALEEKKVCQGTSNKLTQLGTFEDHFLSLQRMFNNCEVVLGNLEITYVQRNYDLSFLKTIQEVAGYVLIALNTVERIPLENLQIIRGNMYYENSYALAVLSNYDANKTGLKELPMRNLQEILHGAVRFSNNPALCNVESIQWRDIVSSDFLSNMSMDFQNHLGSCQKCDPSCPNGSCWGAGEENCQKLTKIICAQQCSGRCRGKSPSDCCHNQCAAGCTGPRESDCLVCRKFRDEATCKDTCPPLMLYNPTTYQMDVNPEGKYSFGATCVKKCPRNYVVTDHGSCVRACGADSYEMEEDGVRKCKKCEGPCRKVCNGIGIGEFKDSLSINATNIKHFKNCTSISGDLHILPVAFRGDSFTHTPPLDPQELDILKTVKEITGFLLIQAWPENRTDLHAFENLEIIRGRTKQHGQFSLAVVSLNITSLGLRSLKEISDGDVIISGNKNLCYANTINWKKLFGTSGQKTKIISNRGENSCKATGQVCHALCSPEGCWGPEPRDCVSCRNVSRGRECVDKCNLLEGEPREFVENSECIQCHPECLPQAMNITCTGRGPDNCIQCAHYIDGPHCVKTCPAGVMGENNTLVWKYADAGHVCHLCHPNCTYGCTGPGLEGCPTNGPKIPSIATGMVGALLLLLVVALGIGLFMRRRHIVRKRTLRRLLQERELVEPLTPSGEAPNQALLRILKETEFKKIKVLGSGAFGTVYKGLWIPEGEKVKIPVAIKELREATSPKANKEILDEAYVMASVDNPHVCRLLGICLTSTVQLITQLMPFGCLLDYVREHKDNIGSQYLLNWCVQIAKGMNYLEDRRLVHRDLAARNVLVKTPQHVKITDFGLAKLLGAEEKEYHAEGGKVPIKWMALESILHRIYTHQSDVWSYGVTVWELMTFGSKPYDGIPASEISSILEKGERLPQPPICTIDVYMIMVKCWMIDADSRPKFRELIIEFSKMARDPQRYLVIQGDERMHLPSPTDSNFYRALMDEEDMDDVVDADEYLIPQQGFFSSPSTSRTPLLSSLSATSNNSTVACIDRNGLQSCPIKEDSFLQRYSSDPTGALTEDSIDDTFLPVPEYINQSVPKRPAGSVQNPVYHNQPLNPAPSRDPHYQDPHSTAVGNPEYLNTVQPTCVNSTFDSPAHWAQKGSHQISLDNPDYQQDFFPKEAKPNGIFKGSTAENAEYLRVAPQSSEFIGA
READOUT_LABEL: IC50

Lookup result for CC1(C)OCC(=O)Nc2cc(Nc3nc(NCC(F)(F)F)c4occc4n3)ccc21 ; measured IC50: > 10 µM

====

assay: Half life in rat at 1 mg/kg, iv; type: ADME, organism-based; conditions: in vivo
READOUT_LABEL: half-life (h)
Your answer is read as h, so omit the unit and give the number.

Lookup result for COC(=O)N[C@@H]1CC(C)(C)c2ccc(Nc3nc(NCC(F)F)c4occc4n3)cc2NC1=O ; measured half-life: 2

====

molecular target: Proto-oncogene tyrosine-protein kinase Src (Homo sapiens, UniProt P12931)
Sequence (P12931 2-536 limits assumed): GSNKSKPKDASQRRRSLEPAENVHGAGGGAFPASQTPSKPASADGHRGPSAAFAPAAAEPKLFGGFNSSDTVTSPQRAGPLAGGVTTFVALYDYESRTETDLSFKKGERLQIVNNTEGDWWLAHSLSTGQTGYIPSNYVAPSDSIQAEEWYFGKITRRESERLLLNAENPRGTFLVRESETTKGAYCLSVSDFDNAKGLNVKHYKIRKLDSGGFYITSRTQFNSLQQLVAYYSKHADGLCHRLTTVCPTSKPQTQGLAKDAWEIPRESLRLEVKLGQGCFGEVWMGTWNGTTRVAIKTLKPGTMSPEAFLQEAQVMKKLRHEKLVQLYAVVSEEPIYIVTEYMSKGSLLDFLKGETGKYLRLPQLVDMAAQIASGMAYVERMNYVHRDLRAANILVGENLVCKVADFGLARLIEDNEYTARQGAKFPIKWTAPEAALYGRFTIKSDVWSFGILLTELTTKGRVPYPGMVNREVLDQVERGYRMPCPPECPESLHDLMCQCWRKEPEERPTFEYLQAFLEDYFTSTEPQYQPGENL
READOUT_LABEL: IC50 (µM)
Your answer is read as µM, so omit the unit and give the number.

Proto-oncogene tyrosine-protein kinase Src (Homo sapiens, UniProt P12931) IC50 of CC1(C)OCC(=O)Nc2cc(Nc3nc(NCC(F)(F)F)c4occc4n3)ccc21 is 0.156
